Molecular target: CD28 (Homo sapiens, UniProt P10747)
Assay: Jurkat/IL2 reporter assay: blockade of CD28 costimulation (plate-bound anti-CD3/CD86-Fc)
Format: cell-based
Design: host or cells: Jurkat cells expressing an IL-2-luciferase reporter
Settings: Table E5; protein diluted to 40 nM before mixing with cells; 5 hours
Consider the following molecules; for each one, report its Average Relative Luminescence Units.

// Average Relative Luminescence Units value for M47L/V68A: variant CD80 IgV-Fc, IgV SEQ ID NO:181 (protein) VIHVTKEVKEVATLSCGHNVSVEELAQTRIYWQKEKKMVLTMMSGDLNIWPEYKNRTIFDITNNLSIAILALRPSDEGTYECVVLKYEKDAFKREHLAEVTLSVKAD : 5445 Relative Luminescence Units

// Average Relative Luminescence Units value for V20I/A71D: variant CD80 IgV-Fc, IgV SEQ ID NO:215 (protein) VIHVTKEVKEVATLSCGHNISVEELAQTRIYWQKEKKMVLTMMSGDMNIWPEYKNRTIFDITNNLSIVILDLRPSDEGTYECVVLKYEKDAFKREHLAEVTLSVKAD : 2165 Relative Luminescence Units

// Average Relative Luminescence Units value for S44P/A71D: variant CD80 IgV-Fc, IgV SEQ ID NO:182 (protein) VIHVTKEVKEVATLSCGHNVSVEELAQTRIYWQKEKKMVLTMMPGDMNIWPEYKNRTIFDITNNLSIVILDLRPSDEGTYECVVLKYEKDAFKREHLAEVTLSVKAD : 2848 Relative Luminescence Units

// Average Relative Luminescence Units value for D46E/A71D: variant CD80 IgV-Fc, IgV SEQ ID NO:222 (protein) VIHVTKEVKEVATLSCGHNVSVEELAQTRIYWQKEKKMVLTMMSGEMNIWPEYKNRTIFDITNNLSIVILDLRPSDEGTYECVVLKYEKDAFKREHLAEVTLSVKAD : 490 Relative Luminescence Units

// Average Relative Luminescence Units value for E81K/A91S: variant CD80 IgV-Fc, IgV SEQ ID NO:172 (protein) VIHVTKEVKEVATLSCGHNVSVEELAQTRIYWQKEKKMVLTMMSGDMNIWPEYKNRTIFDITNNLSIVILALRPSDEGTYKCVVLKYEKDSFKREHLAEVTLSVKAD : 4038 Relative Luminescence Units

// Average Relative Luminescence Units value for N55I/T57I/I69F: variant CD80 IgV-Fc, IgV SEQ ID NO:211 (protein) VIHVTKEVKEVATLSCGHNVSVEELAQTRIYWQKEKKMVLTMMSGDMNIWPEYKIRIIFDITNNLSIVFLALRPSDEGTYECVVLKYEKDAFKREHLAEVTLSVKAD : 1915 Relative Luminescence Units

// Average Relative Luminescence Units value for T13R/M42V/M47I/A71D: variant CD80 IgV-Fc, IgV SEQ ID NO:197 (protein) VIHVTKEVKEVARLSCGHNVSVEELAQTRIYWQKEKKMVLTVMSGDINIWPEYKNRTIFDITNNLSIVILDLRPSDEGTYECVVLKYEKDAFKREHLAEVTLSVKAD : 759 Relative Luminescence Units
